Where these numbers come from: ChEMBL document CHEMBL1140712

species: Homo sapiens; test: Selectivity ratio of pEC50 for human 5HT2B to pEC50 for human 5HT2C

>  <compound>
C[C@@H]1CNCCc2cc(Cl)c(Cl)cc21

>  <Selectivity ratio>
1.5

$$$$
>  <compound>
CC1CNCCc2c(Cl)cc(Cl)cc21 (stereo not given)

>  <Selectivity ratio>
1.6

$$$$
>  <compound>
CC[C@@H]1CNCCc2ccc(Cl)cc21

>  <Selectivity ratio>
1.5

$$$$
>  <compound>
CC1CNCCc2ccc(Br)cc21 (racemic)

>  <Selectivity ratio>
2.3

$$$$
>  <compound>
COc1cc2c(cc1Cl)C(C)CNCC2 (single isomer, unassigned; form 2)

>  <Selectivity ratio>
0.8

$$$$
